The origin of these recorded values is paper PMC5683654.

- testedSystem: T1, BILBO1-NTD’ (aa 1–120) (Trypanosoma brucei, UniProt Q382W6 1-120)
- T1 construct: BILBO1 of Trypanosoma brucei, Tb927.11.12150, aa 1-120, cloned into pET-15b; also called TbBILBO1-NTD’; 6His-BILBO1-NTD’; source: E. coli, purified (Ni-HiTrap, tag removed with thrombin, Superdex-200); not shown: His6, N-terminal, cleaved
- T1 sequence (looked up): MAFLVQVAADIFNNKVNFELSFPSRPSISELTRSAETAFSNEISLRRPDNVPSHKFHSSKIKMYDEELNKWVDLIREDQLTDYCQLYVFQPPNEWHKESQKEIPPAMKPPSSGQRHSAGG
- experimentSummary: ITC; 25°C, 20 mM Tris-HCl pH 8.0, 50 mM NaCl; 50 μM BILBO1-NTD’ in the cell titrated with 600 μM FPC4-B1BD; one-site binding model
- testSettings: both partners purified
measuredParameter: Kd

Req: Write down Kd measured for item FPC4-B1BD (aa 357–440) (domain or fragment, Trypanosoma brucei, UniProt Q57YN8 357-440, looked up, FPC4 of Trypanosoma brucei, Tb927.8.6370, aa 357-440, cloned into the custom vector MalpET; also called TbFPC4-B1BD; MBP-tagged FPC4-B1BD; source: E. coli, purified (Ni-HiTrap, tag removed with TEV, Superdex-200); not shown: MBP, N-terminal, cleaved; His10, N-terminal, cleaved) SQPPSGMISACTPISSPSRGRGTGWAKSLYNELREEGSLSPYLRYLPSDVSGGEWDKPDVGDVLCFQAKEPQRRRVLTSPVPDE
Resp: ~5 µM
